Item-by-item account of growth inhibition
# experiment-summary: NCI Yeast Anticancer Drug Screen. Data for the rad50 strain (AID 155);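 also: 0% = growth of vehicle-only cultures of the same strain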
# stated-conditions: S. cerevisiae rad50 strain growth inhibition; at 5.0 µM (retest, dose inferred, filed as 0.5); hits give high values
Compounds without any hit were thinned out: in the full panel of roughly 79,000, 15% have a hit.
Just the number in %, nothing appended.

>  <molecule>
C[n+]1c(-c2ccc(/C=N/NC(=O)c3ccc(C(=O)N/N=C/c4ccc(-c5cn6ccccc6[n+]5C)cc4)cc3)cc2)cn2ccccc21

>  <unit-symbol>
%

>  <growth inhibition>
15

$$$$
>  <molecule>
CCCCCCCCCCCCCCCCCCNc1nc(=O)n(C2CC(OP(=O)(O)OCC3OC(n4cc(F)c(=O)[nH]c4=O)CC3O)C(CO)O2)cc1F (centres undefined)

>  <unit-symbol>
%

>  <growth inhibition>
34

$$$$
>  <molecule>
CC1C(c2ccccc2)SC(=N)N1C (centres undefined)

>  <unit-symbol>
%

>  <growth inhibition>
0

$$$$

Attention now shifts to the item below.
Enquiry: Which growth inhibition is reported for this molecule? COC(=O)C1=C(C(=O)OC)CC(n2nnc(C(=O)OC)c2C(=O)OC)=CC1
Return: -1

----------
# experiment-summary: NCI Yeast Anticancer Drug Screen. Data for the sgs1 strain (AID 173);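 also: 0% = growth of vehicle-only control cultures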
# stated-conditions: S. cerevisiae sgs1 mutant, at 11.0 µM
The panel holds about 79,000 compounds, 15% with a hit somewhere; the sample as a whole holds those more often. Active and inactive are the calls of the source. Cut-off read from the data, not from the text of the source: active = growth inhibition above about 70%; inactive = the rest.
Tick one outcome: yes (1) = active, no (0) = inactive

Solved entries:
>  <compound>
N#CCCC1C(C#N)C2(Cl)CC1(Cl)C(Cl)=C2Cl (stereo unspecified)

>  <class-assignment>
no (0)

$$$$
>  <compound>
O=C1C=CC(=Nc2cccc3c2-c2ccccc2C3=O)O1

>  <class-assignment>
yes (1)

$$$$
>  <compound>
CCC[CH2][Sn]([CH2]CCC)([CH2]CCC)/[C](=C/[Si](C)(C)c1ccccc1)c1ccc2c(c1)OCO2

>  <class-assignment>
yes (1)

$$$$
>  <compound>
N#[N+]c1c([O-])c2ccccc2c2ccccc12

>  <class-assignment>
no (0)

$$$$
>  <compound>
CN(C)CCNCCCNc1c2ccccc2nc2cccc([N+](=O)[O-])c12

>  <class-assignment>
yes (1)

$$$$

Enquiry: Give the logged outcome of this assay for the following compound: COc1cc([N+](=O)[O-])c2ncccc2c1Br
Return: no (0)

----------
# experiment-summary: NCI Yeast Anticancer Drug Screen. Data for the rad52 strain (AID 147);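 also: 0% = growth of vehicle-treated control cultures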
# stated-conditions: S. cerevisiae rad52 mutant growth inhibition; at 1.2 µM; hits give high values
This is part of a sample that, as a whole, favours compounds with a hit. Of some 79,000 tested, about 15% had one in any assay.
endpoint-label: growth inhibition (%)
Just the number in %, nothing appended.

// worked examples, growth inhibition included
>  <molecule>
CC(/C=C/c1ccc([N+](=O)[O-])o1)=N/N1CC(CN2CCOCC2)OC1=O (configuration not stated)

>  <endpoint-label>
growth inhibition

>  <readout-value>
-5

$$$$
>  <molecule>
O=C1C(=O)c2cccc([N+](=O)[O-])c2-c2ccccc21

>  <endpoint-label>
growth inhibition

>  <readout-value>
6

$$$$
>  <molecule>
CCCCCCCCCCCCCCCCCCN(C)C(COC)COP(=O)([O-])OCC[N+](C)(C)C (configuration not stated)

>  <endpoint-label>
growth inhibition

>  <readout-value>
-58

$$$$

Attention now shifts to the item below.
Enquiry: Which growth inhibition is reported for this molecule? CN1C(=O)C(CC(=O)O)NC1=S (configuration not stated)
Return: 0
